- Test system: PC-12
- method: Neuroprotective activity against H2O2-induced oxidative stress in rat PC-12 cells assessed as cell viability at 5 uM incubated for 24 hrs (reference value: 62.5 %)
- Assay type: functional
- condition-label: read-out: Activity
viability at 5 µM reference

# cpd-smiles, relation, viability at 5 µM [%]
measured = [
    ("O=C(NO)c1ccc(CNC(=O)[C@@H]2Cc3c([nH]c4ccccc34)[C@@H](C3CC3)N2Cc2ccccc2)cc1", ">", 85),
    ("CN1CCc2c(c3ccccc3n2Cc2ccc(C(=O)NO)cc2)C1", "=", 77.6),
    ("COc1ccc(CN2[C@H](C(=O)NCc3ccc(C(=O)NO)cc3)Cc3c([nH]c4ccccc34)[C@H]2C2CC2)cc1", ">", 85),
    ("O=C(NO)c1ccc(CNC(=O)[C@@H]2Cc3c([nH]c4ccccc34)[C@@H](c3ccc(Cl)cc3)N2CC2CC2)cc1", "=", 99.6),
    ("O=C(NO)c1ccc(CNC(=O)[C@@H]2Cc3c([nH]c4ccccc34)[C@@H](C3CC3)N2Cc2ccc(Cl)cc2)cc1", "=", 92.5),
]

###

Ratio IC50 reference
- Species on record: Homo sapiens
- method: Selectivity index, ratio of IC50 for inhibition of human HDAC1 to IC50 for inhibition of human HDAC6
experimental-endpoint: Ratio IC50

# cpd-smiles, experimental-endpoint, reported-value
measured = [
    ("O=C(NO)c1ccc(CNC(=O)[C@@H]2Cc3c([nH]c4ccccc34)[C@@H](C3CC3)N2Cc2ccccc2)cc1", "Ratio IC50", 134),
    ("O=C(NO)c1ccc(CNC(=O)[C@@H]2Cc3c([nH]c4ccccc34)[C@@H](c3ccc4c(c3)OCO4)N2)cc1", "Ratio IC50", 108),
    ("O=C(NO)c1ccc(CNC(=O)[C@@H]2Cc3c([nH]c4ccccc34)[C@@H](c3ccccc3)N2)cc1", "Ratio IC50", 140),
    ("O=C(NO)c1ccc(CNC(=O)[C@@H]2Cc3c([nH]c4ccccc34)[C@@H](C3CCCC3)N2)cc1", "Ratio IC50", 45),
    ("O=C(NO)c1ccc(CNC(=O)[C@@H]2Cc3c([nH]c4ccccc34)[C@@H](C3CC3)N2Cc2ccc(Cl)cc2)cc1", "Ratio IC50", 155),
    ("O=C(NO)c1ccc(CNC(=O)[C@@H]2Cc3c([nH]c4ccccc34)[C@@H](C3CC3)N2)cc1", "Ratio IC50", 36),
    ("O=C(NO)c1ccc(CNC(=O)[C@@H]2Cc3c([nH]c4ccccc34)[C@@H](c3ccc(Cl)cc3)N2)cc1", "Ratio IC50", 137),
]
